Where do the numbers come from? From the Kinase Knowledgebase extract (Sharma et al. 2016).

system name: CDK2 (UniProt P24941)
Label Met when IC50 < 100 nM; otherwise Not met.

For orientation, consider the following solved cases.
> print(dat)
                               smiles.input    label
1  COc1ccccc1-c1ccc2c(c1)NC(=O)/C2=C\c1[nH]cc2c1CCOC2=O  Not met
2  O=C1Nc2ccc(S(=O)(=O)Nc3cccc(Cl)c3)cc2/C1=C/c1[nH]cc2c1CCOC2=O  Not met
3  COc1ccc2c(c1)/C(=C/c1[nH]cc3c1CCOC3=O)C(=O)N2      Met
4  CNS(=O)(=O)c1ccc2c(c1)/C(=C/c1[nH]cc3c1CCOC3=O)C(=O)N2      Met

# evaluate next
Given the entry "O=C1Nc2ccc(C(=O)N3CCOCC3)cc2/C1=C/c1[nH]cc2c1CCNC2=O" , would its reported IC50 be below 100 nM?
Not met
